experiment: HPLC stability study in phosphate buffers; format: physicochemical; conditions: phosphate buffer; pH range studied; medium not specified; read-out: half-life (t½) (converted)
reported.endpoint: half-life at 14.6 µg/mL

molecule="C=CCC1C(=O)N(c2cc(OC)c(OC)c(OC)c2)C1c1ccc(OC)c(N)c1 (centres unmarked) [10r]" result="> 24 h"

Let us move to another entry and its half-life at 14.6 µg/mL.
Ask: For the molecule shown here, C=CCC1C(=O)N(c2cc(OC)c(OC)c(OC)c2)C1c1ccc(OC)c(O)c1 (centres unmarked) [10p] , give the reported half-life at 14.6 µg/mL.
Reply: > 24 h
